- study-system: AGO2 L192P (Homo sapiens, UniProt Q9UKV8 1-859, L192P;S387D;S824A;S828D;S831D;S834A)
- Sequence (Q9UKV8 whole entry L192P/S387D/S824A/S828D/S831D/S834A): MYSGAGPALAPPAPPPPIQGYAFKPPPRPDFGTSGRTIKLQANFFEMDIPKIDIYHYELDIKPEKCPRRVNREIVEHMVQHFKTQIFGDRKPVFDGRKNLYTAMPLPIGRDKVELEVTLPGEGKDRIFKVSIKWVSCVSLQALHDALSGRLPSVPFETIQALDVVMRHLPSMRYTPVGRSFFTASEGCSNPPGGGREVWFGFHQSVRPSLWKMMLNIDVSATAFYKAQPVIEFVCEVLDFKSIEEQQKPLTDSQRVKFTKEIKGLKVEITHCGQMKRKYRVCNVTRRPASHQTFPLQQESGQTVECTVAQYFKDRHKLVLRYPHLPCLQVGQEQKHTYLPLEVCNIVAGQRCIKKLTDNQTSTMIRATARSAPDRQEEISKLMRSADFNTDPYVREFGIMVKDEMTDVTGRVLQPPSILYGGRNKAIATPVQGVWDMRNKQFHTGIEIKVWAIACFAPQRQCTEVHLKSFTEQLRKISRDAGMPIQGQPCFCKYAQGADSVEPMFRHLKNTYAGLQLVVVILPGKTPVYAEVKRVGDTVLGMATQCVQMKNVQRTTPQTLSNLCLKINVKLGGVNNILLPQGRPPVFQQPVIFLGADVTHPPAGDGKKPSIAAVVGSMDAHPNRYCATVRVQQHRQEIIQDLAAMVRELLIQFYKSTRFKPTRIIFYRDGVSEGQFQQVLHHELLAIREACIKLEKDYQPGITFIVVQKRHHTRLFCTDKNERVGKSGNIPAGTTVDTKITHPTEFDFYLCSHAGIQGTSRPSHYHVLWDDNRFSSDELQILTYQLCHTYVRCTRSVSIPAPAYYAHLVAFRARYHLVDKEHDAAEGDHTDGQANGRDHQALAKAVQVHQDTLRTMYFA
- experimental-details: RNA Bind-n-Seq (nitrocellulose filter binding and sequencing); miR-122 guide loaded in AGO2; 60 min incubation; 30 mM Tris pH 8.0, 100 mM potassium acetate, 2 mM magnesium acetate, 0.5 mM TCEP, 0.005% NP-40, 0.01 mg/ml yeast tRNA; 3 nM AGO2-miR-122, 100 nM RNA library; 60; high values mean tight binding
- test-parameters: protein: recombinant; tags: His6 (N-terminal, pFastBac HTA)
measured-metric: binding signal

### Prompt # lookup: binding signal of GCACCCCG (ssRNA, constant regions annealed to DNA blockers; guide miR-122 5' phosphate) RNA 1: GAGUUCUACAGUCCGACGAUCCCAACGCACCCCGCACCUGGAAUUCUCGGGUGCCAA RNA 2: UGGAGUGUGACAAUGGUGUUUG DNA 1: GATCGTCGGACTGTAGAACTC DNA 2: TTGGCACCCGAGAATTCCA
### Response 0.455 fold enrichment over input

### Prompt # repeat for ATACTCTG (ssRNA, constant regions annealed to DNA blockers; guide miR-122 5' phosphate) RNA 1: GAGUUCUACAGUCCGACGAUCCCAACAUACUCUGCACCUGGAAUUCUCGGGUGCCAA RNA 2: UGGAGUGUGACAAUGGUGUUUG DNA 1: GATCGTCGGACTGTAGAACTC DNA 2: TTGGCACCCGAGAATTCCA
### Response 0.349 fold enrichment over input

### Prompt Also GCACCTCG (ssRNA, constant regions annealed to DNA blockers; guide miR-122 5' phosphate) RNA 1: GAGUUCUACAGUCCGACGAUCCCAACGCACCUCGCACCUGGAAUUCUCGGGUGCCAA RNA 2: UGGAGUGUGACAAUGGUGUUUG DNA 1: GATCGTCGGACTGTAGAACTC DNA 2: TTGGCACCCGAGAATTCCA ?
### Response 0.381 fold enrichment over input

### Prompt Do the same for ACACCTCG (ssRNA, constant regions annealed to DNA blockers; guide miR-122 5' phosphate) RNA 1: GAGUUCUACAGUCCGACGAUCCCAACACACCUCGCACCUGGAAUUCUCGGGUGCCAA RNA 2: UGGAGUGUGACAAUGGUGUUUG DNA 1: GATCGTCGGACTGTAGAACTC DNA 2: TTGGCACCCGAGAATTCCA please
### Response 0.412 fold enrichment over input

### Prompt One more binder: GTATTTCA (ssRNA, constant regions annealed to DNA blockers; guide miR-122 5' phosphate) RNA 1: GAGUUCUACAGUCCGACGAUCCCAACGUAUUUCACACCUGGAAUUCUCGGGUGCCAA RNA 2: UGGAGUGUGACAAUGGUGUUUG DNA 1: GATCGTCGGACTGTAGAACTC DNA 2: TTGGCACCCGAGAATTCCA
### Response 0.545 fold enrichment over input

### Prompt Can you handle ACACCCTA (ssRNA, constant regions annealed to DNA blockers; guide miR-122 5' phosphate) RNA 1: GAGUUCUACAGUCCGACGAUCCCAACACACCCUACACCUGGAAUUCUCGGGUGCCAA RNA 2: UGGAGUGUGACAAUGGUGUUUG DNA 1: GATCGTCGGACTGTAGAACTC DNA 2: TTGGCACCCGAGAATTCCA next?
### Response 0.6 fold enrichment over input

### Prompt Please answer likewise for GTACCCCG (ssRNA, constant regions annealed to DNA blockers; guide miR-122 5' phosphate) RNA 1: GAGUUCUACAGUCCGACGAUCCCAACGUACCCCGCACCUGGAAUUCUCGGGUGCCAA RNA 2: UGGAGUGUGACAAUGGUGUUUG DNA 1: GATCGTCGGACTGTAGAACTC DNA 2: TTGGCACCCGAGAATTCCA
### Response 0.358 fold enrichment over input

### Prompt And the next one, ATGCCTTA (ssRNA, constant regions annealed to DNA blockers; guide miR-122 5' phosphate) RNA 1: GAGUUCUACAGUCCGACGAUCCCAACAUGCCUUACACCUGGAAUUCUCGGGUGCCAA RNA 2: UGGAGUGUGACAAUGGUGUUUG DNA 1: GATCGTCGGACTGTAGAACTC DNA 2: TTGGCACCCGAGAATTCCA ?
### Response 0.434 fold enrichment over input
